For each record, write down the corresponding IC50.
# TEST_SYSTEM: Proto-oncogene tyrosine-protein kinase Src (Mus musculus, UniProt P05480)
# Sequence (P05480 2-535 limits assumed): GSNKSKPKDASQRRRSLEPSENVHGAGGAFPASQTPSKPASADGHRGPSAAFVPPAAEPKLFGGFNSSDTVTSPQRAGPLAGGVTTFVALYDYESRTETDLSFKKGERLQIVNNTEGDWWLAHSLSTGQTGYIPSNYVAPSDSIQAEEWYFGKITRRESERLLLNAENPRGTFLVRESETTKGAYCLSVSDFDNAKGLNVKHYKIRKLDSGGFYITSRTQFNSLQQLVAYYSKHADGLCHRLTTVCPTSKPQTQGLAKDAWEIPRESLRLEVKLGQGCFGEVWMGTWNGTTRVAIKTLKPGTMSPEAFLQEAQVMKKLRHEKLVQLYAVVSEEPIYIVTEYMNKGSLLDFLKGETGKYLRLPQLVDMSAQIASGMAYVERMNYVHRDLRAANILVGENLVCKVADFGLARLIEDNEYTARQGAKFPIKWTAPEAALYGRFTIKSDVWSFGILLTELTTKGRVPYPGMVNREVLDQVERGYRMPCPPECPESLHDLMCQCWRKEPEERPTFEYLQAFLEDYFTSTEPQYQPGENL

Examples with answers:
* Nc1ncc2cc(-c3c(Cl)cccc3Cl)c(=O)n(CC(=O)O)c2n1 | > 50000 nM
* CCCCn1c(=O)c(-c2c(Cl)cccc2Cl)cc2cnc(N)nc21 | 330 nM
* CCCn1c(=O)c(-c2c(Cl)cccc2Cl)cc2cnc(N)nc21 | 630 nM
* Cn1c(=O)c(-c2ccsc2)cc2cnc(N)nc21 | > 50000 nM
* CCN(CC)CCOc1ccc(Nc2ncc3cc(-c4c(Cl)cccc4Cl)c(=O)n(CC)c3n2)cc1 | 17 nM

Now let's try a different one.
// map Cn1c(=O)c(-c2ccc(-c3ccccc3)cc2)cc2cnc(Nc3ccccc3)nc21 to recorded IC50 (system: Proto-oncogene tyrosine-protein kinase Src (Mus musculus, UniProt P05480))
> 50000 nM
